- test.summary: Selectivity index, ratio of IC50 for African green monkey Vero cells to IC50 for chloroquine-susceptible Plasmodium falciparum 3D7
- Assay type: toxicity, cell-based
- study.conditions: read-out: Ratio IC50
measured.endpoint: selectivity ratio

Example molecules with recorded selectivity ratio:
molecule	endpoint.value
[C-]#[N+][C@@]12CCC(=C)[C@H]3[C@H](CC(C)(C)NC(=O)C(c4ccccc4)N(CCC(C)C)C(=O)c4ccncc4)C[C@H](C)[C@@H](CC[C@@H]1C)[C@@H]32 (mixture of isomers)	3780
[C-]#[N+][C@@]12CCC(=C)[C@H]3[C@H](CC(C)(C)NC(=O)CN(CCNc4ccnc5cc(Cl)ccc45)C(C)=O)C[C@H](C)[C@@H](CC[C@@H]1C)[C@@H]32	2570
[C-]#[N+][C@@]12CCC(=C)[C@H]3[C@H](CC(C)(C)NC(=O)CN(CCC(C)C)C(=O)c4ccncc4)C[C@H](C)[C@@H](CC[C@@H]1C)[C@@H]32	1720
[C-]#[N+][C@@]12CCC(=C)[C@H]3[C@H](CC(C)(C)NC(=O)CN(CCNc4ccnc5cc(Cl)ccc45)C(=O)c4ccncc4)C[C@H](C)[C@@H](CC[C@@H]1C)[C@@H]32	7150

# context switch: different molecule, same selectivity ratio
Problem: Using the record for [C-]#[N+]C(C)(C)C[C@@H]1C[C@H](C)[C@H]2CC[C@H](C)[C@@]3([N+]#[C-])CCC(=C)[C@@H]1[C@H]23 , state its measured selectivity ratio.
Result: 83100
